# Test system: OVCAR-3 ovarian
# MEASUREMENT_DESCRIPTION: NCI tumour cell line growth inhibition, 48 h
Let's look at some compounds and their measured TGI.

COMPOUND	SYSTEM_TESTED	REPORTED
CN1CC[C@]2(C)c3c(O)cccc3CC3CCCC1C32C (stereo partly specified)	OVCAR-3 ovarian	> 100 µM

Input line: So what does the record say about TGI for `CCOC(=O)C=C1CCC2(CC1)OCCO2` ?
Output line: > 100 µM

Input line: Recorded TGI for `O=C1C=CC(=O)c2c(O)c(CO)c(CO)c(O)c21` , please?
Output line: 1.71 µM

###

# Tested on: RPMI-8226 leukemia
# MEASUREMENT_DESCRIPTION: NCI tumour cell line growth inhibition, 48 h
EXPERIMENTAL_ENDPOINT: TGI

Worked examples follow.
COMPOUND	EXPERIMENTAL_ENDPOINT	REPORTED
CCOC1=CP(=O)(OCC)CC(C)=C1Cl (stereo unspecified)	TGI	> 100 µM
Cc1sccc1C(=S)Nc1ccc(Cl)c(/C=N/OC(C)(C)C)c1	TGI	27 µM
COC(=O)C1=C(C)N2CCOC2(C)C(C(=O)OC)C1c1ccc[nH]1 (stereo unspecified)	TGI	> 100 µM
NC(=O)NN=C1C[C@H]2CCCC[C@H]2C1	TGI	> 100 µM
CN(O)C(=O)c1ccccc1	TGI	> 100 µM
C[N+]1(C)C/C(=C/c2ccc(F)cc2)C(=O)/C(=C\c2ccc(F)cc2)C1	TGI	57.8 µM

Input line: Form field - read-out: TGI; system: RPMI-8226 leukemia; submitted item: `COC(=O)c1c2c(c[n+]([O-])c1C)C(=O)C=C(NCc1ccccc1)C2=O`
Output line: 0.843 µM

Input line: Missing value: TGI, RPMI-8226 leukemia, entry `COc1ccc2c(CCC(c3ccccc3)c3ccccc3)c3[n+](cc2c1OC)CCc1cc2c(cc1-3)OCO2` . Fill in?
Output line: 1.72 µM

Input line: Reported TGI for RPMI-8226 leukemia, given COc1ccc(C(OCC2OC(n3cnc4c(=O)n(Cc5ccccc5[N+](=O)[O-])nnc43)C(O)C2O)(c2ccccc2)c2ccc(OC)cc2)cc1 (stereo unspecified) ?
Output line: 15.7 µM

Input line: Lab note: need TGI with RPMI-8226 leukemia for entry CC1CC(c2ccc(Cl)cc2)=Nc2ccccc2S1 (stereo unspecified) , please look it up.
Output line: > 100 µM

Input line: Hi! What's the reported TGI for `CC(C)=CC(=O)OCC(=O)O[C@@H]1C[C@]2(C(C)C)O[C@@]1(C)[C@@H]1CC[C@@H](C)[C@H]1[C@@H]2OC(=O)/C=C/c1ccccc1` on RPMI-8226 leukemia?
Output line: > 100 µM

Input line: Item: `COc1ccc2[nH]c3c(C)c4ccnc(NCCCN(C)CCCNc5ccc6nnn7c8ccccc8c(=O)c5c67)c4c(C)c3c2c1` Test system: RPMI-8226 leukemia Read-out: TGI Value: ?
Output line: 2.19 µM

Input line: // fetch RPMI-8226 leukemia TGI for `Cc1ccc(C[N+](C)(C)N)cc1C`
Output line: > 10 µM

Input line: What reported TGI corresponds to `O=C1c2ccccc2C(=O)N1C/C=N/NS(=O)(=O)c1ccc2ccccc2c1` on RPMI-8226 leukemia?
Output line: > 100 µM

Input line: Short answer please: TGI, RPMI-8226 leukemia, entry `CC(=O)Nc1ccc(-c2csc(Nc3ccc(-c4csc(-c5ccccc5)n4)cc3)n2)cc1`
Output line: > 50 µM

Input line: Query the reported TGI for RPMI-8226 leukemia; item: `COc1c(CC(=O)c2ccccc2)c2ccccc2n1C(C)=O`
Output line: > 100 µM
